Parameter: MIC. Scope: all listed entries.
# System: Enterococcus faecalis 25
# Construct: 25
# TEST PROTOCOL: microbe, parasite or virus in culture
# Parameters: CLSI broth microdilution MIC in MHB-II
# PROTOCOL CONDITIONS: Enterococcus faecalis, 25, 18 h, read-out: MIC
# Protocol: MICs were determined by a microdilution broth method as recommended by the CLSI with MHB-II. For MICs of stable analogues, a 2-fold dilution of each compound was prepared in DMSO at 100-fold of the final concentration. […] The plates were incubated at 37 °C for 18 h and then MICs were determined. […] MICs in Supplementary Table 1 were determined in one trial.
Answer shape: numeric part, then the unit.

{"MOL SMILES": "CCCCCCCCCCCCCCCC(=O)N[C@@H](CCCNC(=N)N)C(=O)Nc1cccc(CN[C@H](C(=O)O)[C@H](O[C@@H]2O[C@H](CN)[C@@H](O)[C@H]2O)[C@H]2O[C@@H](n3ccc(=O)[nH]c3=O)[C@H](O)[C@@H]2O)c1", "MIC": "0.5 µg/mL"}
{"MOL SMILES": "CCCCCCCCCCCCCCCC(=O)N[C@@H](CCCNC(=N)N)C(=O)Nc1ccc(CN[C@H](C(=O)O)[C@H](O[C@@H]2O[C@H](CN)[C@@H](O)[C@H]2O)[C@H]2O[C@@H](n3ccc(=O)[nH]c3=O)[C@H](O)[C@@H]2O)cc1", "MIC": "0.25 µg/mL"}
{"MOL SMILES": "CN[C@H](CC(C)C)C(=O)N[C@H]1C(=O)N[C@@H](CC(N)=O)C(=O)N[C@H]2C(=O)N[C@H]3C(=O)N[C@H](C(=O)N[C@H](C(=O)O)c4cc(O)cc(O)c4-c4cc3ccc4O)[C@H](O)c3ccc(c(Cl)c3)Oc3cc2cc(c3O[C@@H]2O[C@H](CO)[C@@H](O)[C@H](O)[C@H]2O[C@H]2C[C@](C)(N)[C@H](O)[C@H](C)O2)Oc2ccc(cc2Cl)[C@H]1O", "MIC": "1 µg/mL"}
{"MOL SMILES": "CCCCCCCCCCCCCCCC(=O)N[C@@H](CCCNC(=N)N)C(=O)NCc1ccc(CN[C@H](C(=O)O)[C@H](O[C@@H]2O[C@H](CN)[C@@H](O)[C@H]2O)[C@H]2O[C@@H](n3ccc(=O)[nH]c3=O)[C@H](O)[C@@H]2O)cc1", "MIC": "0.13 µg/mL"}
{"MOL SMILES": "CCCCCCCCCCCCCCCC(=O)N[C@@H](CCCCN)C(=O)Nc1ccc(CN[C@H](C(=O)O)[C@H](O[C@@H]2O[C@H](CN)[C@@H](O)[C@H]2O)[C@H]2O[C@@H](n3ccc(=O)[nH]c3=O)[C@H](O)[C@@H]2O)cc1", "MIC": "0.25 µg/mL"}
{"MOL SMILES": "CCCCCCCCCCCCCCCC(=O)N[C@@H](CCCCN)C(=O)NCc1cccc(CN[C@H](C(=O)O)[C@H](O[C@@H]2O[C@H](CN)[C@@H](O)[C@H]2O)[C@H]2O[C@@H](n3ccc(=O)[nH]c3=O)[C@H](O)[C@@H]2O)c1", "MIC": "0.25 µg/mL"}
{"MOL SMILES": "C[C@H]1COc2c(N3CCN(C)CC3)c(F)cc3c(=O)c(C(=O)O)cn1c23", "MIC": "0.5 µg/mL"}
{"MOL SMILES": "CCCCCCCCCCCCCCCC(=O)N[C@@H](CCCCN)C(=O)Nc1cccc(CN[C@H](C(=O)O)[C@H](O[C@@H]2O[C@H](CN)[C@@H](O)[C@H]2O)[C@H]2O[C@@H](n3ccc(=O)[nH]c3=O)[C@H](O)[C@@H]2O)c1", "MIC": "0.5 µg/mL"}

MIC for `CC1(C)S[C@@H]2[C@H](NC(=O)[C@H](N)c3ccccc3)C(=O)N2[C@H]1C(=O)O` is 1 µg/mL

MIC for `CCCCCCCCCCCCCCCC(=O)N[C@@H](CCCNC(=N)N)C(=O)NCc1cccc(CN[C@H](C(=O)O)[C@H](O[C@@H]2O[C@H](CN)[C@@H](O)[C@H]2O)[C@H]2O[C@@H](n3ccc(=O)[nH]c3=O)[C@H](O)[C@@H]2O)c1` is 0.25 µg/mL

###

# System: Enterococcus faecium 9
# TEST PROTOCOL: microbe, parasite or virus in culture
# Set-up: CLSI broth microdilution MIC in MHB-II
# PROTOCOL CONDITIONS: Enterococcus faecium, 9, 18 h, read-out: MIC
Parameter: MIC. Scope: all listed entries.
Give just the number in µg/mL; leave the unit off.

{"COMPOUND": "CCCCCCCCCCCCCCCC(=O)N[C@@H](CCCNC(=N)N)C(=O)Nc1ccc(CN[C@H](C(=O)O)[C@H](O[C@@H]2O[C@H](CN)[C@@H](O)[C@H]2O)[C@H]2O[C@@H](n3ccc(=O)[nH]c3=O)[C@H](O)[C@@H]2O)cc1 [compound 7, analogue 7]", "MIC, µg/mL": 0.25}

Now look at this one.
I looked up CCCCCCCCCCCCCCCC(=O)N[C@@H](CCCCN)C(=O)Nc1cccc(CN[C@H](C(=O)O)[C@H](O[C@@H]2O[C@H](CN)[C@@H](O)[C@H]2O)[C@H]2O[C@@H](n3ccc(=O)[nH]c3=O)[C@H](O)[C@@H]2O)c1 [compound 6, analogue 6] and its MIC for Enterococcus faecium 9 was 1

###

# System: Enterococcus faecalis 30
# Construct: 30
# TEST PROTOCOL: microbe, parasite or virus in culture
# Set-up: CLSI broth microdilution MIC in MHB-II
# PROTOCOL CONDITIONS: Enterococcus faecalis, 30, 18 h, read-out: MIC
MEASURED ATTRIBUTE: MIC (µg/mL)
Give just the number in µg/mL; leave the unit off.

Example entries and their recorded answers appear below.
{"MOL SMILES": "CC1(C)S[C@@H]2[C@H](NC(=O)[C@H](N)c3ccccc3)C(=O)N2[C@H]1C(=O)O", "MEASURED ATTRIBUTE": "MIC", "READING UNIT": "µg/mL", "EXPERIMENTAL RESULT": 0.5}
{"MOL SMILES": "CCCCCCCCCCCCCCCC(=O)N[C@@H](CCCCN)C(=O)Nc1ccc(CN[C@H](C(=O)O)[C@H](O[C@@H]2O[C@H](CN)[C@@H](O)[C@H]2O)[C@H]2O[C@@H](n3ccc(=O)[nH]c3=O)[C@H](O)[C@@H]2O)cc1", "MEASURED ATTRIBUTE": "MIC", "READING UNIT": "µg/mL", "EXPERIMENTAL RESULT": 0.13}
{"MOL SMILES": "CCCCCCCCCCCCCCCC(=O)N[C@@H](CCCNC(=N)N)C(=O)Nc1cccc(CN[C@H](C(=O)O)[C@H](O[C@@H]2O[C@H](CN)[C@@H](O)[C@H]2O)[C@H]2O[C@@H](n3ccc(=O)[nH]c3=O)[C@H](O)[C@@H]2O)c1", "MEASURED ATTRIBUTE": "MIC", "READING UNIT": "µg/mL", "EXPERIMENTAL RESULT": 0.5}

Now look at this one.
MIC for `CCCCCCCCCCCCCCCC(=O)N[C@@H](CCCNC(=N)N)C(=O)NCc1ccc(CN[C@H](C(=O)O)[C@H](O[C@@H]2O[C@H](CN)[C@@H](O)[C@H]2O)[C@H]2O[C@@H](n3ccc(=O)[nH]c3=O)[C@H](O)[C@@H]2O)cc1` is 0.25

###

# Tested on: Enterococcus faecalis 28
# Construct: 28
# TEST PROTOCOL: microbe, parasite or virus in culture
# Design: CLSI broth microdilution MIC in MHB-II
# PROTOCOL CONDITIONS: Enterococcus faecalis, 28, 18 h, read-out: MIC
MEASURED ATTRIBUTE: MIC

{"MOL SMILES": "CCCCCCCCCCCCCCCC(=O)N[C@@H](CCCCN)C(=O)NCc1cccc(CN[C@H](C(=O)O)[C@H](O[C@@H]2O[C@H](CN)[C@@H](O)[C@H]2O)[C@H]2O[C@@H](n3ccc(=O)[nH]c3=O)[C@H](O)[C@@H]2O)c1", "TESTED SYSTEM": "Enterococcus faecalis 28", "MIC": "< 0.06 mg/L"}

MIC for `CCCCCCCCCCCCCCCC(=O)N[C@@H](CCCNC(=N)N)C(=O)NCc1cccc(CN[C@H](C(=O)O)[C@H](O[C@@H]2O[C@H](CN)[C@@H](O)[C@H]2O)[C@H]2O[C@@H](n3ccc(=O)[nH]c3=O)[C@H](O)[C@@H]2O)c1` is < 0.06 mg/L

###

Measured IC50 (MraYSA (S. aureus MraY) (Staphylococcus aureus, UniProt Q2FZ93))
Give just the number in nM; leave the unit off.

{"MOL SMILES": "CCCCCCCCCCCCCCCC(=O)N[C@@H](CCCNC(=N)N)C(=O)NCc1ccc(CN[C@H](C(=O)O)[C@H](O[C@@H]2O[C@H](CN)[C@@H](O)[C@H]2O)[C@H]2O[C@@H](n3ccc(=O)[nH]c3=O)[C@H](O)[C@@H]2O)cc1", "MEASURED ATTRIBUTE": "IC50", "EXPERIMENTAL RESULT": 4}
{"MOL SMILES": "CCCCCCCCCCCCCCCC(=O)N[C@@H](CCCCN)C(=O)Nc1cccc(CN[C@H](C(=O)O)[C@H](O[C@@H]2O[C@H](CN)[C@@H](O)[C@H]2O)[C@H]2O[C@@H](n3ccc(=O)[nH]c3=O)[C@H](O)[C@@H]2O)c1", "MEASURED ATTRIBUTE": "IC50", "EXPERIMENTAL RESULT": 3.7}

I looked up `CC(C)(C)c1ccc(C(=O)N/N=C/c2ccc(CN[C@H](C(=O)O)[C@H](O[C@@H]3O[C@H](CN)[C@@H](O)[C@H]3O)[C@H]3O[C@@H](n4ccc(=O)[nH]c4=O)[C@H](O)[C@@H]3O)cc2)cc1` and its IC50 for MraYSA (S. aureus MraY) (Staphylococcus aureus, UniProt Q2FZ93) was 2.4

I looked up `CCCCCCCCCCCCCCCC(=O)N[C@@H](CCCNC(=N)N)C(=O)NCc1cccc(CN[C@H](C(=O)O)[C@H](O[C@@H]2O[C@H](CN)[C@@H](O)[C@H]2O)[C@H]2O[C@@H](n3ccc(=O)[nH]c3=O)[C@H](O)[C@@H]2O)c1` and its IC50 for MraYSA (S. aureus MraY) (Staphylococcus aureus, UniProt Q2FZ93) was 5

I looked up `CCCCCCCCCCCCCCCC(=O)N[C@@H](CCCNC(=N)N)C(=O)Nc1ccc(CN[C@H](C(=O)O)[C@H](O[C@@H]2O[C@H](CN)[C@@H](O)[C@H]2O)[C@H]2O[C@@H](n3ccc(=O)[nH]c3=O)[C@H](O)[C@@H]2O)cc1` and its IC50 for MraYSA (S. aureus MraY) (Staphylococcus aureus, UniProt Q2FZ93) was 1.7

I looked up `CCCCCCCCCCCCCCCC(=O)N[C@@H](CCCCN)C(=O)Nc1ccc(CN[C@H](C(=O)O)[C@H](O[C@@H]2O[C@H](CN)[C@@H](O)[C@H]2O)[C@H]2O[C@@H](n3ccc(=O)[nH]c3=O)[C@H](O)[C@@H]2O)cc1` and its IC50 for MraYSA (S. aureus MraY) (Staphylococcus aureus, UniProt Q2FZ93) was 3.1

I looked up `CCCCCCCCCCCCCCCC(=O)N[C@@H](CCCNC(=N)N)C(=O)Nc1cccc(CN[C@H](C(=O)O)[C@H](O[C@@H]2O[C@H](CN)[C@@H](O)[C@H]2O)[C@H]2O[C@@H](n3ccc(=O)[nH]c3=O)[C@H](O)[C@@H]2O)c1` and its IC50 for MraYSA (S. aureus MraY) (Staphylococcus aureus, UniProt Q2FZ93) was 1.8

I looked up `CCCCCCCCCCCCCCCC(=O)N[C@@H](CCCCN)C(=O)NCc1cccc(CN[C@H](C(=O)O)[C@H](O[C@@H]2O[C@H](CN)[C@@H](O)[C@H]2O)[C@H]2O[C@@H](n3ccc(=O)[nH]c3=O)[C@H](O)[C@@H]2O)c1` and its IC50 for MraYSA (S. aureus MraY) (Staphylococcus aureus, UniProt Q2FZ93) was 5.9
